Reported half-life by item:
experiment: Half-life (hydrolysis) in human blood; format: ADME

Would you please look over these solved cases?
[
  {
    "Smiles record": "CSC[C@H](OC(=O)[C@H](C)CS)C(=O)O",
    "half-life": "14 min"
  },
  {
    "Smiles record": "CC(C)SC[C@H](OC(=O)[C@H](C)CS)C(=O)O",
    "half-life": "20 min"
  },
  {
    "Smiles record": "C[C@H](CS)C(=O)OCC(=O)O",
    "half-life": "53 min"
  }
]

Qu. Please report the recorded half-life for C[C@H](CS)C(=O)O[C@@H](CSCc1ccccc1)C(=O)O .
Ans. > 60 min

Qu. Input C[C@H](CS)C(=O)O[C@@H](CSC1CCCC1)C(=O)O
Ans. 27 min

Qu. Further, for C[C@H](CS)C(=O)O[C@@H](Cc1ccccc1)C(=O)O ?
Ans. 23 min

Qu. Also C[C@H](CS)C(=O)N[C@@H](Cc1ccccc1)C(=O)O , if possible.
Ans. > 60 min

Qu. CCC(CC)SC[C@H](OC(=O)[C@H](C)CS)C(=O)O ?
Ans. 37 min

###

target: Angiotensin-converting enzyme (Oryctolagus cuniculus) (UniProt P12822); test: Inhibitory activity towards purified rabbit lung Angiotensin I converting enzyme
Sequence (P12822 whole entry): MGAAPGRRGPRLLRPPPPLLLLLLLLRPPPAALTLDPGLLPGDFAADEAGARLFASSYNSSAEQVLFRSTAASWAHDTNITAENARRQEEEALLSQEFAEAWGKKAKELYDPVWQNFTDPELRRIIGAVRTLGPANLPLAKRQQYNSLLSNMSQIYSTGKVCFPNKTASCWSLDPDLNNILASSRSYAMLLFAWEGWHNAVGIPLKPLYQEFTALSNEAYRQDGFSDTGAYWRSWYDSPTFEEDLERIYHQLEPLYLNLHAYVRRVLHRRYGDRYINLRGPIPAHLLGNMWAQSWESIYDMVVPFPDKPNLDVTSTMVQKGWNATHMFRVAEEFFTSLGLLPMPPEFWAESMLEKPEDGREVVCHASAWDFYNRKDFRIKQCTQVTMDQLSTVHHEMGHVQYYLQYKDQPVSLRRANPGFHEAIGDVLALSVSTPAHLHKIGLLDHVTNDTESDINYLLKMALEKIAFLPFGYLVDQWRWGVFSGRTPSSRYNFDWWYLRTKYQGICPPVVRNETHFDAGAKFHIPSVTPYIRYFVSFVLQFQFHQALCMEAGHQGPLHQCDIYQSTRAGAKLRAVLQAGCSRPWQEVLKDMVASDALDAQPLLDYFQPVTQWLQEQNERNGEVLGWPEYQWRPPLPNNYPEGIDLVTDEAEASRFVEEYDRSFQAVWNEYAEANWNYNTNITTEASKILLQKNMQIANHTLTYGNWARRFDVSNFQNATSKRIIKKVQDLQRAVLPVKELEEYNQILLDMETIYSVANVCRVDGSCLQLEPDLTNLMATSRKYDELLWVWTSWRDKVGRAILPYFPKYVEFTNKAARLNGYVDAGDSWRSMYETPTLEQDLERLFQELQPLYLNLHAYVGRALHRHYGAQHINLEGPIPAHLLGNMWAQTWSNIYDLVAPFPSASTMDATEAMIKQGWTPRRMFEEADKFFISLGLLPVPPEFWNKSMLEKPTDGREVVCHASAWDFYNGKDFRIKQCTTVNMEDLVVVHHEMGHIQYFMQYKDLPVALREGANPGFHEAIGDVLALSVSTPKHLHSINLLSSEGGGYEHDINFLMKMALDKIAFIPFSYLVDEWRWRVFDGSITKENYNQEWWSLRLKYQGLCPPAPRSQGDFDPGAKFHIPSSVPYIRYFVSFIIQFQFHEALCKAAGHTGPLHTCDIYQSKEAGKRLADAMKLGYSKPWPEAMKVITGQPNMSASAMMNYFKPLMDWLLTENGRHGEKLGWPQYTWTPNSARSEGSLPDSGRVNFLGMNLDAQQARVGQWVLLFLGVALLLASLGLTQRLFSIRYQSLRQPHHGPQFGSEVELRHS
Measurement name: pIC50
Just so you know, pIC50 here is -log10 of the concentration in molar units; reply with that number alone.

# annotated cases, reported pIC50 shown
[
  {
    "Smiles record": "C[C@H](CS)C(=O)O[C@@H](CSC1CCCC1)C(=O)O",
    "pIC50": 8.74
  },
  {
    "Smiles record": "C[C@H](CS)C(=O)N[C@@H](Cc1ccccc1)C(=O)O",
    "pIC50": 7.07
  },
  {
    "Smiles record": "C[C@H](CS)C(=O)N1CCC[C@H]1C(=O)O",
    "pIC50": 8.57
  },
  {
    "Smiles record": "C[C@H](CS)C(=O)O[C@@H](Cc1ccccc1)C(=O)O",
    "pIC50": 7.97
  }
]

Qu. Given the entry C[C@H](CS)C(=O)O[C@@H](CSCc1ccccc1)C(=O)O , what pIC50 was observed with Angiotensin-converting enzyme (Oryctolagus cuniculus) (UniProt P12822)?
Ans. 8.49

###

molecular target: Angiotensin-converting enzyme (Oryctolagus cuniculus); assay: Inhibitory activity towards purified rabbit lung angiotensin I converting enzyme
Measurement name: IC50 (nM)
Numeric only. Scale: nM

[
  {
    "Smiles record": "CC(C)SC[C@H](OC(=O)[C@H](C)CS)C(=O)O",
    "Target desc": "Angiotensin-converting enzyme (Oryctolagus cuniculus)",
    "Measurement units": "nM",
    "Measured value": 2.8
  },
  {
    "Smiles record": "C[C@H](CS)C(=O)OCC(=O)O",
    "Target desc": "Angiotensin-converting enzyme (Oryctolagus cuniculus)",
    "Measurement units": "nM",
    "Measured value": 123
  },
  {
    "Smiles record": "CCC(CC)SC[C@H](OC(=O)[C@H](C)CS)C(=O)O",
    "Target desc": "Angiotensin-converting enzyme (Oryctolagus cuniculus)",
    "Measurement units": "nM",
    "Measured value": 2
  }
]

As a next step, examine the molecule that follows.
Qu. Form: Entry = CSC[C@H](OC(=O)[C@H](C)CS)C(=O)O | System = Angiotensin-converting enzyme (Oryctolagus cuniculus) | IC50 = ____
Ans. 5.7
